Source: ChEMBL document CHEMBL3132802

# procedureSummary: Cytotoxicity against human NCI-H446 cells assessed as cell survival up to 200 uM after 24 hrs by MTT assay
# Type: cell-based
# assaySetup: read-out: Survival
Reported viability at 24 h is given for each of the following molecules.

itemSmiles | viability at 24 h
c1ccc2[nH]c(CCn3nnc4ccccc43)nc2c1 | > 90%

## Input Give reported viability at 24 h value for O=C(O)CCn1ccnc1
## Output > 90%

## Input Give reported viability at 24 h value for O=C(O)CCn1nnc2ccccc21
## Output > 90%

====

# targetOrSystem: Prolyl hydroxylase EGLN3 (Homo sapiens)
# Sequence (Q9H6Z9 whole entry): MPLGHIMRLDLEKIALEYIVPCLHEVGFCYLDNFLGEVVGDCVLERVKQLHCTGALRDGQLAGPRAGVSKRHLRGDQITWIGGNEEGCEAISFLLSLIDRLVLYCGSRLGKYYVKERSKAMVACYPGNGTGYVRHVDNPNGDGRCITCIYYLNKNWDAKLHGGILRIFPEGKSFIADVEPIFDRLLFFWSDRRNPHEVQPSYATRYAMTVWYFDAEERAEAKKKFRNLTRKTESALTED
# procedureSummary: Inhibition of recombinant human PHD3 expressed in Escherichia coli using HIF19 peptide as substrate by fluorescence emission spectroscopy
Reported IC50 is given for each of the following compounds.

itemSmiles | IC50
c1ccc2[nH]cnc2c1 | > 100 µM

## Input Write down measured IC50 (Prolyl hydroxylase EGLN3 (Homo sapiens)) for this compound. c1ccc2[nH]nnc2c1
## Output > 100 µM
